- System: HOP-62 multicell spheroids with HUVEC/MSC, viability
- Measurement Notes: Anticancer human tumor HOP-62 cell line growth inhibition [KRAS2];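 further: viability read after a week of compound exposure; 100% = DMSO vehicle-treated spheroids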
- Measurement Conditions: second compound 3.16 µM; first compound 0.316 µM; stronger effect = lower value
viability, T/C reference
# unit: % | format: bare number

CCN1CCN(Cc2ccc(Nc3ncc(F)c(-c4cc(F)c5nc(C)n(C(C)C)c5c4)n3)nc2)CC1 + COc1cc2nc(C)nc(NC(C)c3cc(N)cc(C(F)(F)F)c3)c2cc1OC1CCOC1; 42.4
CCN1CCN(Cc2ccc(Nc3ncc(F)c(-c4cc(F)c5nc(C)n(C(C)C)c5c4)n3)nc2)CC1 + CC1OCC2(CCN(c3cnc(Sc4ccnc(N)c4Cl)c(N)n3)CC2)C1N; 25.7
COc1cc2nccc(Oc3ccc(NC(=O)C4(C(=O)Nc5ccc(F)cc5)CC4)cc3)c2cc1OC + C=CC(=O)N1CCN(c2nc(OCC3CCCN3C)nc3c2CCN(c2cccc4cccc(C)c24)C3)CC1CC#N; 0.15

Test system HOP-62 multicell spheroids with HUVEC/MSC, viability; read-out viability, T/C; what value for CCNC(=O)CC1N=C(c2ccc(Cl)cc2)c2cc(OC)ccc2-n2c(C)nnc21 (stereo not given) + CC1OCC2(CCN(c3cnc(Sc4ccnc(N)c4Cl)c(N)n3)CC2)C1N ? 25.9

Then this compound: O=C(c1cc(Cc2n[nH]c(=O)c3ccccc23)ccc1F)N1CCN(C(=O)C2CC2)CC1 + CNCc1ccccc1-c1csc(C(C)Nc2nc(C)nc3cc(OC)c(OC)cc23)c1 28.4

====

- Tested on: HOP-62 multicell spheroids with HUVEC/MSC, viability
- Measurement Notes: Anticancer human tumor HOP-62 cell line growth inhibition [KRAS2];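 further: viability read after a week of compound exposure; 100% = DMSO vehicle-treated spheroids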
- Measurement Conditions: second compound 0.316 µM; first compound 0.00316 µM; stronger effect = lower value
Below is a list of entries, each paired with its recorded viability, T/C value.
# unit: % | format: bare number

Look over these answered cases.
CN(C)C/C=C/C(=O)Nc1cc2c(Nc3ccc(F)c(Cl)c3)ncnc2cc1O[C@H]1CCOC1 + CNCc1ccccc1-c1csc(C(C)Nc2nc(C)nc3cc(OC)c(OC)cc23)c1; 110
CC(=O)Nc1cccc(-n2c(=O)n(C3CC3)c(=O)c3c(Nc4ccc(I)cc4F)n(C)c(=O)c(C)c32)c1 + C=CC(=O)N1CCN(c2nc(OCC3CCCN3C)nc3c2CCN(c2cccc4cccc(C)c24)C3)CC1CC#N; 18.4
Cn1ncnc1[C@H]1c2n[nH]c(=O)c3cc(F)cc(c23)N[C@@H]1c1ccc(F)cc1 + CNCc1ccccc1-c1csc(C(C)Nc2nc(C)nc3cc(OC)c(OC)cc23)c1; 89.4
CC(C)n1nc(-c2ccc3oc(N)nc3c2)c2c(N)ncnc21 + CNCc1ccccc1-c1csc(C(C)Nc2nc(C)nc3cc(OC)c(OC)cc23)c1; 40.2

Next compound, viability, T/C to be filled in.
Can you share its viability, T/C? I mean this compound: CCN1CCN(Cc2ccc(Nc3ncc(F)c(-c4cc(F)c5nc(C)n(C(C)C)c5c4)n3)nc2)CC1 + CNCc1ccccc1-c1csc(C(C)Nc2nc(C)nc3cc(OC)c(OC)cc23)c1 108

====

- System: HOP-62 multicell spheroids with HUVEC/MSC, viability
- Measurement Notes: Anticancer human tumor HOP-62 cell line growth inhibition [KRAS2];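 further: viability read after a week of compound exposure; 100% = DMSO vehicle-treated spheroids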
- Measurement Conditions: second compound 3.16 µM; first compound 0.0316 µM; stronger effect = lower value
Sorting guide: entries reporting viability, T/C beneath 30% go in the 1 (yes) pile, the rest go in the 0 (no) pile.

Some entries whose results are on file:
COc1cc2nccc(Oc3ccc(NC(=O)C4(C(=O)Nc5ccc(F)cc5)CC4)cc3)c2cc1OC + CC1OCC2(CCN(c3cnc(Sc4ccnc(N)c4Cl)c(N)n3)CC2)C1N; 0 (no)
CC1(C)CCC(CN2CCN(c3ccc(C(=O)NS(=O)(=O)c4ccc(NCC5CCOCC5)c([N+](=O)[O-])c4)c(Oc4cnc5[nH]ccc5c4)c3)CC2)=C(c2ccc(Cl)cc2)C1 + C=CC(=O)N1CCN(c2nc(OCC3CCCN3C)nc3c2CCN(c2cccc4cccc(C)c24)C3)CC1CC#N; 1 (yes)
CN(C)C/C=C/C(=O)Nc1cc2c(Nc3ccc(F)c(Cl)c3)ncnc2cc1O[C@H]1CCOC1 + C=CC(=O)N1CCN(c2nc(OCC3CCCN3C)nc3c2CCN(c2cccc4cccc(C)c24)C3)CC1CC#N; 1 (yes)
COc1cc2nccc(Oc3ccc(NC(=O)C4(C(=O)Nc5ccc(F)cc5)CC4)cc3)c2cc1OC + C=CC(=O)N1CCN(c2nc(=O)n(-c3c(C)ccnc3C(C)C)c3nc(-c4c(O)cccc4F)c(F)cc23)C(C)C1; 0 (no)
Cn1nccc1Nc1nccc(-c2cc3c(s2)C(C)(C)N(CCN2CCOCC2)C3=O)n1 + C=CC(=O)N1CCN(c2nc(OCC3CCCN3C)nc3c2CCN(c2cccc4cccc(C)c24)C3)CC1CC#N; 1 (yes)
CN(C)C/C=C/C(=O)Nc1cc2c(Nc3ccc(F)c(Cl)c3)ncnc2cc1O[C@H]1CCOC1 + CNCc1ccccc1-c1csc(C(C)Nc2nc(C)nc3cc(OC)c(OC)cc23)c1; 0 (no)
CC(C)NCC(C(=O)N1CCN(c2ncnc3c2C(C)CC3O)CC1)c1ccc(Cl)cc1 (stereo not given) + C=CC(=O)N1CCN(c2nc(=O)n(-c3c(C)ccnc3C(C)C)c3nc(-c4c(O)cccc4F)c(F)cc23)C(C)C1; 0 (no)
CC1OCC2(CCN(c3cnc(Sc4ccnc(N)c4Cl)c(N)n3)CC2)C1N (stereo not given) + COc1cc2nc(C)nc(NC(C)c3cc(N)cc(C(F)(F)F)c3)c2cc1OC1CCOC1; 0 (no)
CC1(C)CCC(CN2CCN(c3ccc(C(=O)NS(=O)(=O)c4ccc(NCC5CCOCC5)c([N+](=O)[O-])c4)c(Oc4cnc5[nH]ccc5c4)c3)CC2)=C(c2ccc(Cl)cc2)C1 + COc1cc2nc(C)nc(NC(C)c3cc(N)cc(C(F)(F)F)c3)c2cc1OC1CCOC1; 0 (no)

--- query ---
Hello, is viability, T/C of the following compound strictly smaller than 30%? CCN1CCN(Cc2ccc(Nc3ncc(F)c(-c4cc(F)c5nc(C)n(C(C)C)c5c4)n3)nc2)CC1 + CNCc1ccccc1-c1csc(C(C)Nc2nc(C)nc3cc(OC)c(OC)cc23)c1 1 (yes)

====

// values below are reported viability, T/C
- Tested on: HOP-62 multicell spheroids with HUVEC/MSC, viability
- Measurement Notes: Anticancer human tumor HOP-62 cell line growth inhibition [KRAS2];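 further: viability read after a week of compound exposure; 100% = DMSO vehicle-treated spheroids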
- Measurement Conditions: second compound 1 µM; first compound 0.1 µM; stronger effect = lower value

Examples with answers:
Cn1nccc1Nc1nccc(-c2cc3c(s2)C(C)(C)N(CCN2CCOCC2)C3=O)n1 + CC1OCC2(CCN(c3cnc(Sc4ccnc(N)c4Cl)c(N)n3)CC2)C1N; 48.4%
CC(C)NCC(C(=O)N1CCN(c2ncnc3c2C(C)CC3O)CC1)c1ccc(Cl)cc1 (stereo unspecified) + COc1cc2nc(C)nc(NC(C)c3cc(N)cc(C(F)(F)F)c3)c2cc1OC1CCOC1; 67.8%

# viability, T/C lookup, item COc1cc2nccc(Oc3ccc(NC(=O)C4(C(=O)Nc5ccc(F)cc5)CC4)cc3)c2cc1OC + CNCc1ccccc1-c1csc(C(C)Nc2nc(C)nc3cc(OC)c(OC)cc23)c1 79.2%

Another: COc1cc2nccc(Oc3ccc(NC(=O)C4(C(=O)Nc5ccc(F)cc5)CC4)cc3)c2cc1OC + C=CC(=O)N1CCN(c2nc(OCC3CCCN3C)nc3c2CCN(c2cccc4cccc(C)c24)C3)CC1CC#N 31.1%

One more compound: CN(C)C/C=C/C(=O)Nc1cc2c(Nc3ccc(F)c(Cl)c3)ncnc2cc1O[C@H]1CCOC1 + COc1cc2nc(C)nc(NC(C)c3cc(N)cc(C(F)(F)F)c3)c2cc1OC1CCOC1 111%

Then what about the compound CC(C)NCC(C(=O)N1CCN(c2ncnc3c2C(C)CC3O)CC1)c1ccc(Cl)cc1 (stereo unspecified) + CNCc1ccccc1-c1csc(C(C)Nc2nc(C)nc3cc(OC)c(OC)cc23)c1 ? 74.8%

Quick one: CC1(C)CCC(CN2CCN(c3ccc(C(=O)NS(=O)(=O)c4ccc(NCC5CCOCC5)c([N+](=O)[O-])c4)c(Oc4cnc5[nH]ccc5c4)c3)CC2)=C(c2ccc(Cl)cc2)C1 + CNCc1ccccc1-c1csc(C(C)Nc2nc(C)nc3cc(OC)c(OC)cc23)c1 76.2%

Cool, now Cn1ncnc1[C@H]1c2n[nH]c(=O)c3cc(F)cc(c23)N[C@@H]1c1ccc(F)cc1 + C=CC(=O)N1CCN(c2nc(=O)n(-c3c(C)ccnc3C(C)C)c3nc(-c4c(O)cccc4F)c(F)cc23)C(C)C1 59.4%

Please do the same for CC(C)NCC(C(=O)N1CCN(c2ncnc3c2C(C)CC3O)CC1)c1ccc(Cl)cc1 (stereo unspecified) + C=CC(=O)N1CCN(c2nc(=O)n(-c3c(C)ccnc3C(C)C)c3nc(-c4c(O)cccc4F)c(F)cc23)C(C)C1 as well. 49.6%

Request: COc1cc(Nc2ncc3c(n2)-c2ccc(Cl)cc2C(c2c(F)cccc2OC)=NC3)ccc1C(=O)O + CNCc1ccccc1-c1csc(C(C)Nc2nc(C)nc3cc(OC)c(OC)cc23)c1 46.3%

Next entry: COc1cc(Nc2ncc3c(n2)-c2ccc(Cl)cc2C(c2c(F)cccc2OC)=NC3)ccc1C(=O)O + C=CC(=O)N1CCN(c2nc(OCC3CCCN3C)nc3c2CCN(c2cccc4cccc(C)c24)C3)CC1CC#N 15.5%
